System: OVCAR-4 ovarian
PROTOCOL_DETAILS: NCI-60 one-dose screen, 48 h (100 = growth as untreated, 0 = no growth, -100 = all killed)
STUDY_CONDITIONS: 10 µM unless noted
The panel holds about 83,000 compounds, 20% with a hit somewhere; the sample as a whole holds those more often.
Recorded measurements of growth, one per entry
ENDPOINT: growth (%)

* Cc1nc(O)cc(=O)[nH]1 | 114
* NC(=S)N/N=C/c1ccc(Cl)cc1 | 97.3
* CCN(CC)CCN1CNC(=S)NC1 | 109
* S=C(Sc1ccc(Cl)cc1)Sc1ccc(Cl)cc1 | 10.1
* Cn1c(=O)[nH]c2ccccc2c1=O | 110
* O=[N+]([O-])c1c(O)c(CNCCCO)cc(CNCCCO)c1O | 105
* Cn1c(=O)c2nc3c(=O)n(C)c(=O)n(C)c3nc2n(C)c1=O | 108
